# runDescription: Effect of pretreatment on paclitaxel accumulation in tumors, in vivo infusion
# Parameters: species or system Copenhagen rat
# conditions: male, Copenhagen, rat, tumor and plasma, intravenous, 5 mg/kg, Group 2A: 5 mg/kg/hr x 1 hr at 0 hr, total 5 mg/kg; read-out: Tumor-to-plasma conc. ratio at end of Tx
propertyLabel: Kp
Field format: numeric only.

Query :: Need Kp, item `CC(=O)O[C@H]1C(=O)[C@@]2(C)[C@H]([C@H](OC(=O)c3ccccc3)[C@]3(O)C[C@H](OC(=O)[C@H](O)[C@@H](NC(=O)c4ccccc4)c4ccccc4)C(C)=C1C3(C)C)[C@]1(OC(C)=O)CO[C@@H]1C[C@@H]2O`
Result :: 0.46

* * *

# runDescription: Effect of pretreatment on paclitaxel accumulation in tumors, in vivo infusion
# Design: species or system Copenhagen rat
# conditions: male, Copenhagen, rat, tumor and plasma, intravenous, 10 mg/kg, Group 1: 5 mg/kg/hr x 1 hr, then 0.83 x 6 hr at 24 hr, total 10 mg/kg; read-out: Tumor-to-plasma conc. ratio at end of Tx
propertyLabel: Kp
Field format: numeric only.

Query :: Need Kp, item CC(=O)O[C@H]1C(=O)[C@@]2(C)[C@H]([C@H](OC(=O)c3ccccc3)[C@]3(O)C[C@H](OC(=O)[C@H](O)[C@@H](NC(=O)c4ccccc4)c4ccccc4)C(C)=C1C3(C)C)[C@]1(OC(C)=O)CO[C@@H]1C[C@@H]2O [paclitaxel]
Result :: 2.8

* * *

# runDescription: Effect of pretreatment on paclitaxel accumulation in tumors, in vivo infusion
# Design: species or system Copenhagen rat
# conditions: male, Copenhagen, rat, tumor and plasma, intravenous, 5 mg/kg, Group 3: 0.83 mg/kg/hr x 6 hr at 0 hr, total 5 mg/kg; read-out: Tumor-to-plasma conc. ratio at end of Tx
# Text: Experiments were initiated when the tumor was between 0.3 to 0.5 g in size. The jugular vein and carotid artery of tumor-bearing rats were catheterized, under light ether anesthesia, with polyethylene tubing (PE-50, Becton Dickinson Co., Sparks, Md.) for drug administration and for blood sampling, respectively. Each catheter was exteriorized to the dorsal side of the neck and attached to a second polyethylene tubing (PE-50), respectively. […]
propertyLabel: Kp
Field format: numeric only.

Query :: Need Kp, item `CC(=O)O[C@H]1C(=O)[C@@]2(C)[C@H]([C@H](OC(=O)c3ccccc3)[C@]3(O)C[C@H](OC(=O)[C@H](O)[C@@H](NC(=O)c4ccccc4)c4ccccc4)C(C)=C1C3(C)C)[C@]1(OC(C)=O)CO[C@@H]1C[C@@H]2O`
Result :: 1.73

* * *

# runDescription: Effect of pretreatment on paclitaxel accumulation in tumors, in vivo infusion
# Parameters: species or system Copenhagen rat
# conditions: male, Copenhagen, rat, tumor and plasma, intravenous, 10 mg/kg, Group 5: 0.83 mg/kg/hr x 12 hr, total 10 mg/kg; read-out: Tumor-to-plasma conc. ratio at end of Tx
propertyLabel: Kp
Field format: numeric only.

Query :: Need Kp, item `CC(=O)O[C@H]1C(=O)[C@@]2(C)[C@H]([C@H](OC(=O)c3ccccc3)[C@]3(O)C[C@H](OC(=O)[C@H](O)[C@@H](NC(=O)c4ccccc4)c4ccccc4)C(C)=C1C3(C)C)[C@]1(OC(C)=O)CO[C@@H]1C[C@@H]2O`
Result :: 1.98
